# Test system: 518A2 (melanoma)
# Procedure text: SRB cytotoxicity assay, 518A2
# Type: cell-based, human
# Experimental parameters: SI = EC50 (NIH 3T3)/EC50 (518A2)
Structures can show the parent of a compound that is named as a salt.
Below, each entry is listed alongside its reported Selectivity index (SI) 518A2.
Readout: Selectivity index (SI) 518A2

Compound	Tgt	Observed value
C=C(C)C1CC[C@]2(C(=O)NCCCCN)CC[C@]3(C)C(CCC4[C@@]5(C)CC[C@H](OC(C)=O)C(C)(C)C5CC[C@]43C)C12 (some centres unmarked) [Compound 22]	518A2 (melanoma)	0.60
CC(=O)O[C@H]1CC[C@@]2(C)C(CC[C@]3(C)C2CC=C2C4[C@@H](C)[C@H](C)CC[C@]4(C(=O)NCCCCN)CC[C@]23C)C1(C)C (some centres unmarked) [Compound 8]	518A2 (melanoma)	0.48
COc1cccc2c1C(=O)c1c(O)c3c(c(O)c1C2=O)C[C@@](O)(C(=O)CO)C[C@@H]3O[C@H]1C[C@H](N)[C@H](O)[C@H](C)O1 [DRC, doxorubicin hydrochloride, reference compound]	518A2 (melanoma)	0.30
C[C@@H]1CC[C@]2(C(=O)NCCN3CCCC3)CC[C@]3(C)C(=CCC4[C@@]5(C)CC[C@H](O)C(C)(C)C5CC[C@]43C)C2[C@H]1C (some centres unmarked) [Compound 12]	518A2 (melanoma)	1.13
C=C(C)C1CC[C@]2(C(=O)NCCN3CCCCC3)CC[C@]3(C)C(CCC4[C@@]5(C)CC[C@H](OC(C)=O)C(C)(C)C5CC[C@]43C)C12 (some centres unmarked) [Compound 20]	518A2 (melanoma)	0.39
